Quick list: Yap1 mRNA, % UTC per entry.
test system: Yap1 mRNA; experiment: Dose-dependent inhibition of human Yap1 in A-431 cells (Example 8, 10,000 cells per well, RTS4814); format: cell-based; conditions: 125.0 nM; A-431 cells, 10,000 cells per well, free uptake, approximately 48 hours, RTS4814
Strand notation (5' to 3'): a small letter for the sugar, then the base; units joined by * are phosphorothioate-linked, units joined directly phosphodiester-linked; [ ] holds rarer units or linkages, { } end groups; capitals alone tell only the bases. k = constrained ethyl (cEt); [5mC] = 5-methylcytosine; d = 2'-deoxy (DNA)
The reply should be a number in % UTC, with the unit left off.

INSERT INTO measurements (substance, reading) VALUES
  ('1074445 (kT*kG*kA*dT*dA*dG*d[5mC]*dA*d[5mC]*dT*dA*dG*dG*kA*kG*kG; antisense) [compound 1074445]', 19);

Any idea what Yap1 mRNA, % UTC was measured for 1076465 (kG*k[5mC]*kT*dT*dA*dA*dG*dG*dA*dA*dT*dA*dT*kA*k[5mC]*kA; antisense) [compound 1076465] ?
32

# iterate: 1076456 (k[5mC]*kT*kT*dT*dA*dA*dA*dG*dT*dG*dT*dA*dT*kG*kT*k[5mC]) [compound 1076456]
14

* * *

experiment: Cynomolgus monkey tolerability, kidney and liver function markers (Example 34); details: cynomolgus monkeys, 35 mg/kg subcutaneously, day 44
Parameter ALB: see the listing below.
The reply should be a number in g/dL, with the unit left off.

INSERT INTO measurements (substance, measured_endpoint, reading) VALUES
  ('1198605 (GTAATATTGCAATCTG; modified gapmer, further chemistry not given here) [compound 1198605]', 'ALB', 4.0),
  ('1198439 (AGTGTATGTCAGAAGA; sugar, 5-methylcytosine, phosphorothioate modifications, further chemistry not given here) [compound 1198439]', 'ALB', 4.0),
  ('1198872 (TGTATGTCAGAAGAGT; chemically modified gapmer, further chemistry not given here) [compound 1198872]', 'ALB', 4.0),
  ('1198440 (AAGTGTATGTCAGAAG; cEt, 2''-MOE, 5-methylcytosine, phosphorothioate modifications, further chemistry not given here) [compound 1198440]', 'ALB', 4.1);

Name the reported ALB value associated with the substance 958499 (ATTAGAGTATGTGGCA; 3-10-3 cEt gapmer, further chemistry not given here) [compound 958499]
4.0

Param item: 1198831 (CACTTTTACATTAGGA; chemically modified gapmer, further chemistry not given here) [compound 1198831]
3.9

Same lookup for 1076453 (GTAATATTGCAATCTG; 3-10-3 cEt gapmer, further chemistry not given here) [compound 1076453] , please.
3.9

* * *

test system: Yap1 mRNA; experiment: Dose-dependent inhibition of human Yap1 in A-431 cells (Example 7, 10,000 cells per well, RTS36584); format: cell-based; details: Table 59, 62.5 nM, free uptake, A-431 cells 10,000 cells per well, 48 hours
Strand notation (5' to 3'): a small letter for the sugar, then the base; units joined by * are phosphorothioate-linked, units joined directly phosphodiester-linked; [ ] holds rarer units or linkages, { } end groups; capitals alone tell only the bases. k = constrained ethyl (cEt); [5mC] = 5-methylcytosine; d = 2'-deoxy (DNA)
measured endpoint: Yap1 mRNA, % UTC (% UTC)
Write it as a number; the unit % UTC goes unstated.

INSERT INTO results (substance, reading) VALUES
  ('958668 (kG*kT*kG*dA*dT*d[5mC]*dT*dG*dT*dG*dA*dG*dA*kG*kG*kT; antisense) [compound 958668]', 38),
  ('958553 (k[5mC]*k[5mC]*kA*dT*dT*dA*dT*dT*dA*d[5mC]*dT*d[5mC]*d[5mC]*kT*kG*kT; antisense) [compound 958553]', 23);

Turning now to a further record.
I have this substance here, 958763 (k[5mC]*kA*k[5mC]*dA*dA*dT*dA*d[5mC]*dA*dA*dG*dA*dT*kG*k[5mC]*kA; antisense) [compound 958763] , and I need its recorded Yap1 mRNA, % UTC.
60

* * *

test system: Yap1 mRNA; assay: Antisense inhibition of human Yap1 in A-431 cells by cEt gapmers, single dose (Example 3, RTS36584); type: cell-based; settings: Table 8; A-431 cells, 5,000 cells per well, free uptake, 2,000 nM, approximately 48 hours; RTS36584; normalized to RIBOGREEN; Yap1 mRNA relative to untreated control cells
Strand notation (5' to 3'): a small letter for the sugar, then the base; units joined by * are phosphorothioate-linked, units joined directly phosphodiester-linked; [ ] holds rarer units or linkages, { } end groups; capitals alone tell only the bases. k = constrained ethyl (cEt); [5mC] = 5-methylcytosine; d = 2'-deoxy (DNA)
Outcome label depends on YAP1 (% UTC) relative to 70 % UTC: at/above gives TRUE, below gives FALSE.

Here's what some known entries look like.
INSERT INTO assay_data (substance, test_target, answer_label) VALUES
  ('958349 (k[5mC]*k[5mC]*kG*dA*dG*dT*d[5mC]*d[5mC]*d[5mC]*d[5mC]*dG*d[5mC]*dG*kG*kA*k[5mC]; antisense) [Compound 958349]', 'Yap1 mRNA', 'TRUE'),
  ('958414 (antisense k[5mC]*kA*kG*dA*dA*dT*dT*d[5mC]*d[5mC]*d[5mC]*dA*dA*dG*k[5mC]*kT*kA) [Compound 958414]', 'Yap1 mRNA', 'TRUE'),
  ('958351 (kT*k[5mC]*kT*d[5mC]*d[5mC]*dG*dA*dG*dT*d[5mC]*d[5mC]*d[5mC]*d[5mC]*kG*k[5mC]*kG; antisense) [Compound 958351]', 'Yap1 mRNA', 'FALSE'),
  ('958403 (antisense k[5mC]*kA*kG*dT*dT*dT*dA*dT*dG*dT*dA*dG*dT*kA*kG*kT) [Compound 958403]', 'Yap1 mRNA', 'FALSE'),
  ('958380 (antisense k[5mC]*kG*k[5mC]*dG*d[5mC]*d[5mC]*d[5mC]*dG*d[5mC]*d[5mC]*d[5mC]*dG*d[5mC]*kA*k[5mC]*k[5mC]) [Compound 958380]', 'Yap1 mRNA', 'TRUE');

Could you tell me if the measured YAP1 (% UTC) of 958362 (antisense kA*kG*k[5mC]*dT*d[5mC]*dG*dA*dA*d[5mC]*dA*dT*dG*d[5mC]*kT*kG*kT) [Compound 958362] reaches 70 % UTC or more?
FALSE

* * *

test system: Yap1 mRNA; test: Dose-dependent inhibition of human Yap1 in A-431 cells (Example 7, 10,000 cells per well, RTS36584); format: cell-based; conditions: Table 61, 15.6 nM, free uptake, A-431 cells 10,000 cells per well, 48 hours
Strand notation (5' to 3'): a small letter for the sugar, then the base; units joined by * are phosphorothioate-linked, units joined directly phosphodiester-linked; [ ] holds rarer units or linkages, { } end groups; capitals alone tell only the bases. k = constrained ethyl (cEt); [5mC] = 5-methylcytosine; d = 2'-deoxy (DNA)
measured endpoint: Yap1 mRNA, % UTC (% UTC)
Number in % UTC, nothing else.

INSERT INTO measurements (substance, measured_endpoint, reading) VALUES
  ('958454 (antisense kG*kG*kA*dA*dT*dG*dA*dG*d[5mC]*dT*d[5mC]*dG*dA*kA*k[5mC]*kA) [compound 958454]', 'Yap1 mRNA, % UTC', 72);

Sample 958534 (kT*kT*k[5mC]*dA*dG*d[5mC]*dA*dT*dA*dG*dA*dA*dG*kT*kA*kG; antisense) [compound 958534] — what was its Yap1 mRNA, % UTC?
85

Now this one: 958724 (kT*k[5mC]*kA*dG*dT*dT*dA*dT*d[5mC]*d[5mC]*dT*dA*dT*k[5mC]*k[5mC]*k[5mC]; antisense) [compound 958724]
89

* * *

Each record here notes measured YAP1 (% UTC).
test system: Yap1 mRNA; assay: Antisense inhibition of human Yap1 in A-431 cells by cEt gapmers, single dose (Example 3, RTS36584); assay type: cell-based; settings: Table 10; A-431 cells, 5,000 cells per well, free uptake, 2,000 nM oligonucleotide, approx. 48 hours; primer probe set RTS36584; Yap1 mRNA normalized to RIBOGREEN, percent of untreated control
Strand notation (5' to 3'): a small letter for the sugar, then the base; units joined by * are phosphorothioate-linked, units joined directly phosphodiester-linked; [ ] holds rarer units or linkages, { } end groups; capitals alone tell only the bases. k = constrained ethyl (cEt); [5mC] = 5-methylcytosine; d = 2'-deoxy (DNA)
Just the number please, in % UTC, no unit attached.

Consider the following illustrative entries.
INSERT INTO assay_data (substance, reading) VALUES
  ('958612 (antisense kA*k[5mC]*k[5mC]*dT*dA*dA*d[5mC]*dA*dT*dA*dT*dG*dA*kG*k[5mC]*kA) [Compound 958612]', 18),
  ('958692 (antisense kG*kG*k[5mC]*dT*dA*dG*dA*dG*dG*d[5mC]*d[5mC]*dG*dG*kG*kT*kG) [Compound 958692]', 105);

Quick one: YAP1 (% UTC) for 958792 (antisense kG*k[5mC]*k[5mC]*dA*dA*dT*dG*dG*dA*dG*dT*d[5mC]*dA*k[5mC]*k[5mC]*kA) [Compound 958792] ?
46
